- TARGET ENTITY: human recombinant GABAA receptor α2β2γ2 (Homo sapiens, UniProt P18507+P47869)
- Sequence (P47869 29-451, one chain of several): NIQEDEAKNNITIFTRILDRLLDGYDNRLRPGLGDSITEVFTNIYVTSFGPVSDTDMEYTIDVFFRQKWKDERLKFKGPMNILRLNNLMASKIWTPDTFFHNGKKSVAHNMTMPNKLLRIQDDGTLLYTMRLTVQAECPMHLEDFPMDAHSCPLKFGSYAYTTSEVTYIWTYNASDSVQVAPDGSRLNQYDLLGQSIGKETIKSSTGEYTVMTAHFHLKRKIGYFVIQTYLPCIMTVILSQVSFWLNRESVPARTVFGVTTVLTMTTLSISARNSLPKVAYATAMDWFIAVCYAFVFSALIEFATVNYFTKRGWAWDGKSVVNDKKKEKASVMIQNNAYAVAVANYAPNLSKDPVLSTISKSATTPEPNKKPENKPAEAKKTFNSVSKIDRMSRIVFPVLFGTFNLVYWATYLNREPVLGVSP
- PROTOCOL NOTES: Two-electrode voltage clamp in Xenopus oocytes, α2β2γ2
REPORTED ENDPOINT: EC50 (µM)
Form entry: value (µM) — number only.

Return value of EC50 for input "COCc1nn2c(CN3C[C@@H](CC(F)(F)Cl)CC3=O)c(C(F)(F)F)nc2s1" , no commentary.
1.74

====

- TARGET ENTITY: recombinant human GABAARs (α1β2γ2) (Homo sapiens, UniProt P14867+P18507)
- Sequence (P14867 28-456): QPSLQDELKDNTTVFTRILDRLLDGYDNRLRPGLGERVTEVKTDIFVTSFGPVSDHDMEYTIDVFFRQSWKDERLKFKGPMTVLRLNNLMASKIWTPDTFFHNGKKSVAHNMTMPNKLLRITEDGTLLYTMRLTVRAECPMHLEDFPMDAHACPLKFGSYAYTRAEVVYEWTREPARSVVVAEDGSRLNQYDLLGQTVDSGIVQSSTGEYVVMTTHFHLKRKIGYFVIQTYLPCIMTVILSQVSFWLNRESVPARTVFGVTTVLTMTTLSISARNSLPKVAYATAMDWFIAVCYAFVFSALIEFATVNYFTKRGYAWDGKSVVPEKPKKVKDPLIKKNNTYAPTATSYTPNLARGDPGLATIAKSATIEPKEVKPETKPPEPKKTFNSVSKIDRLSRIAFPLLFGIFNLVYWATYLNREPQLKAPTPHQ
- Sequence (P47870 25-512 partner limits assumed): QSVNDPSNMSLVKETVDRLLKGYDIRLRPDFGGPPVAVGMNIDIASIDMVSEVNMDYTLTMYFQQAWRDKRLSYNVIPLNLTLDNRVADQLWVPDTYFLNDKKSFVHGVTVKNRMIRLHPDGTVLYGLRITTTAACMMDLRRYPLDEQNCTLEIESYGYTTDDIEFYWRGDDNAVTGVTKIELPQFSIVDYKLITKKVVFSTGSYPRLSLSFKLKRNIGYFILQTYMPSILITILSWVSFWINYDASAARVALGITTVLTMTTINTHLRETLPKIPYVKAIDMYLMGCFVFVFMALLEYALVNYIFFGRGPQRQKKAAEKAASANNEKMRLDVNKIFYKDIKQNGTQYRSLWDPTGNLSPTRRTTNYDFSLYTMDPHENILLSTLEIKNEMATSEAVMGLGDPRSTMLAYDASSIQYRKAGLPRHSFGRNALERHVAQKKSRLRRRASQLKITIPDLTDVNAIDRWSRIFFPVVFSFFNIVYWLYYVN
- Sequence (P18507 40-475): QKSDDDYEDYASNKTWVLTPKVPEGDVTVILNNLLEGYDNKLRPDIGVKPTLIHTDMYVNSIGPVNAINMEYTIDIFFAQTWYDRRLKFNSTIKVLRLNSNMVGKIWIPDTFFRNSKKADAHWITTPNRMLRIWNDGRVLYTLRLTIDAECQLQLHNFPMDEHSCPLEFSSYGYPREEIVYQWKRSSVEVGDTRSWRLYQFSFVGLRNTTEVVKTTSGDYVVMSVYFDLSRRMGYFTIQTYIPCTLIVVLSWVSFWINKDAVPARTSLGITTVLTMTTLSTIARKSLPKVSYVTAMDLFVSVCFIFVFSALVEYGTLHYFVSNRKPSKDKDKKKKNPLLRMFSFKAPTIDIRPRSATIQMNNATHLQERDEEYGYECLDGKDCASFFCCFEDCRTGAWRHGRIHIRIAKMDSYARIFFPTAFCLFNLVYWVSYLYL
REPORTED ENDPOINT: EC50 (nM)
Form entry: value (nM) — number only.

Report value: EC50, system: recombinant human GABAARs (α1β2γ2) (Homo sapiens, UniProt P14867+P18507), molecule: COCc1nn2c(CN3C[C@@H](CC(F)(F)Cl)CC3=O)c(C(F)(F)F)nc2s1 [Padsevonil]
138

====

- TARGET ENTITY: human recombinant GABAA receptor α5β2γ2 (Homo sapiens, UniProt P18507+P31644)
- Sequence (P31644 32-462, one chain of several): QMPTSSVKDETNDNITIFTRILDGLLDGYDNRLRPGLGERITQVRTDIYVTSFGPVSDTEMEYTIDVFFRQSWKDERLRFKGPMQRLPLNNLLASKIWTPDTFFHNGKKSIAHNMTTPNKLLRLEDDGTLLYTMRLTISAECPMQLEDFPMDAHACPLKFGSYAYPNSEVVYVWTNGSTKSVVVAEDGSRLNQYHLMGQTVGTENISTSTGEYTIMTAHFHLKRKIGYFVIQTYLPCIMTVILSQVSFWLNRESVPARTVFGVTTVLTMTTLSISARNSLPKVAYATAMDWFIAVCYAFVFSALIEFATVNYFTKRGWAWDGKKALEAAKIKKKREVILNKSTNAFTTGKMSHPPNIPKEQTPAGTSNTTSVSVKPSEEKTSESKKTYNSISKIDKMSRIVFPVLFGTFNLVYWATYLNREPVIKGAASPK
- PROTOCOL NOTES: Two-electrode voltage clamp in Xenopus oocytes, α5β2γ2
REPORTED ENDPOINT: EC50
Hi, when you answer, please include the unit after the number. Thanks!

Return value of EC50 for input COCc1nn2c(CN3C[C@@H](CC(F)(F)Cl)CC3=O)c(C(F)(F)F)nc2s1 [Padsevonil] , no commentary.
281 nM

====

- TARGET ENTITY: human recombinant GABAA receptor α1β2γ2 (Homo sapiens, UniProt P14867+P18507)
- Sequence (P14867 28-456): as the sequence (P14867 28-456) above
- Sequence (P47870 25-512 partner limits assumed): as the sequence (P47870 25-512 partner limits assumed) above
- Sequence (P18507 40-475): as the sequence (P18507 40-475) above
- PROTOCOL NOTES: Two-electrode voltage clamp in Xenopus oocytes, α1β2γ2
REPORTED ENDPOINT: EC50
Hi, when you answer, please include the unit after the number. Thanks!

Return value of EC50 for input COCc1nn2c(CN3C[C@@H](CC(F)(F)Cl)CC3=O)c(C(F)(F)F)nc2s1 [Padsevonil] , no commentary.
295 nM

====

- TARGET ENTITY: human recombinant GABAA receptor α3β2γ2 (Homo sapiens, UniProt P18507+P34903)
- Sequence (P34903 29-492): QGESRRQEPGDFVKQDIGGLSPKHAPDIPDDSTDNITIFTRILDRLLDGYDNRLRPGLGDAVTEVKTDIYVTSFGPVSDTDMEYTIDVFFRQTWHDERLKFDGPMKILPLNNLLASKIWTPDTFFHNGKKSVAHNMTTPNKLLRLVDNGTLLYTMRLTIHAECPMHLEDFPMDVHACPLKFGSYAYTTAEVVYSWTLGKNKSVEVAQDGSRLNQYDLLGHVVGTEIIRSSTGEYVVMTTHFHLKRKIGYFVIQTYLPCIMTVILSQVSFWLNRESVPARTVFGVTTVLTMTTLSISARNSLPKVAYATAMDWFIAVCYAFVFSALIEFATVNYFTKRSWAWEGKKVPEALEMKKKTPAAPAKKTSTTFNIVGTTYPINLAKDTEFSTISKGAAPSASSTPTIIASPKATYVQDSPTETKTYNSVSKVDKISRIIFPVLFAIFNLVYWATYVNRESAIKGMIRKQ
- Sequence (P47870 25-512 partner limits assumed): as the sequence (P47870 25-512 partner limits assumed) above
- Sequence (P18507 40-475): as the sequence (P18507 40-475) above
- PROTOCOL NOTES: Two-electrode voltage clamp in Xenopus oocytes, α3β2γ2
- Assay type: cell-based
REPORTED ENDPOINT: pEC50
Please note pEC50 is a logarithmic value: minus log10 of concentration in mol/L. Answer with that number alone.

Return value of pEC50 for input COCc1nn2c(CN3C[C@@H](CC(F)(F)Cl)CC3=O)c(C(F)(F)F)nc2s1 [Padsevonil] , no commentary.
5.68
